Target: T1, HLA-A*0201 molecule on human T2 cells (human)
T1 construct: read out with anti-HLA-A2 antibody BB7.2-PE; also called HLA-A2
Test: T2 cells expressing HLA-A*0201, anti-HLA-A2-PE, FACS
Measurement kind: mean relative fluorescence intensity at 25 µM peptide

I'd like to know its mean relative fluorescence intensity at 25 µM peptide. The binder in question is WLPFGFILI (Fragment of human IL13RA2) [IL13RA2-H]
11.2 % of HIV peptide

Could you do the same for FMVEDETVL (Fragment of human EZH2) [EZH2-H] , please?
40.7 % of HIV peptide

Could you do the same for FLPFGFILV [IL13RA2-B] , please?
86.5 % of HIV peptide

Could you do the same for GLLGEFLQI (also called B1RC5-B3) [BIRC5-B3] , please?
20.9 % of HIV peptide

Could you do the same for LMDLSTTEV [FOXM1-B2] , please?
98.2 % of HIV peptide

Could you do the same for FMLGEFLKL [BIRC5-B1] , please?
61.7 % of HIV peptide

Could you do the same for YLLSAALTI [CHI3L1B3] , please?
36.7 % of HIV peptide

Could you do the same for FLVEDETVI [EZH2-B] , please?
53.9 % of HIV peptide

Could you do the same for FLDSLGFST [TYMS-H2] , please?
32.5 % of HIV peptide

Could you do the same for RLSSYLVEI [FOXM1-B] , please?
7.6 % of HIV peptide

Could you do the same for AVFRVLIPV [EZH2-B2] , please?
74.8 % of HIV peptide

Could you do the same for LMDLSTTPL (Fragment of human FOXM1) [FOXM1-H2] , please?
65.4 % of HIV peptide

Could you do the same for LLLSAALSV [CHI3L1B] , please?
45.3 % of HIV peptide

Could you do the same for SMFRVLIGT (Fragment of human EZH2) [EZH2-H2] , please?
13.3 % of HIV peptide

Could you do the same for RVSSYLVPI (Fragment of human FOXM1) [FOXM1-H] , please?
10.5 % of HIV peptide

Could you do the same for SMEELLWFV [TYMS-B] , please?
49.3 % of HIV peptide

Could you do the same for LTLGEFLKL [BIRC5-H] , please?
9.8 % of HIV peptide

Could you do the same for FLDSLGFSL [TYMS-B2] , please?
61.1 % of HIV peptide

Could you do the same for LLLSAALSA (Fragment of human CHI3L1) [CHI3L1H] , please?
4.9 % of HIV peptide

Could you do the same for VLEELLWFI (Fragment of human TYMS) [TYMS-H] , please?
38.1 % of HIV peptide

Could you do the same for YTLGEFLYI [BIRC5-B2] , please?
29.6 % of HIV peptide

Could you do the same for ILDEAYVRV [EGFR-B] , please?
53.2 % of HIV peptide
